Just for reference, the supplement of paper PMC9170038 is where these values come from.

Tested on: MS2 coat protein
Assay: apparent KD of MS2 coat protein; higher = weaker reporter binding
Conditions: Eterna round: R107; input ligand: theophylline 2 mM
Is apparent KD of MS2 coat protein at least 20 nM? Then class 1. If not, class 0.

Query: Hi, just wondering whether GUAGCUAUCGCGGCCGCCACUAAACCGGAAACGGAACAGUAGGAUCACCAUUGUGGCGAAAGCCAUAGGACCGGGCGAUAGCUAC [TryBS - Double Magnet system 2] shows apparent KD of MS2 coat protein of 20 nM or higher.
Response: class 1

Query: Hi, just wondering whether ACGUAAAGCAGAAGGAGCGUCUUCAAUUUACAUGAGGAUCACCCAUGUUUUGUGAUCAUAUGACAGGUAGGUCGCUGAAGUACGA [JR_SSArginiB_Sub002] shows apparent KD of MS2 coat protein of 20 nM or higher.
Response: class 1

Query: Hi, just wondering whether AGGACGGUCGGAAGGAGCGGUACAUGAGGAUCACCCAUGUACCUCUGGGCAUCCGUAGUGUGCCAGGUAGGUCGCCGAUUGCGGG [Lareerra] shows apparent KD of MS2 coat protein of 20 nM or higher.
Response: class 0

Query: Hi, just wondering whether GACUAUAUGAUAUGUCAGAAAUCCUCGAAACGAGGACCGGUACGGCCGCCACUCGAGUGAUAAACAUGAGGAUCACCCAUGUAAA [Tryp A Ex t2] shows apparent KD of MS2 coat protein of 20 nM or higher.
Response: class 1

Query: Hi, just wondering whether GGGCCUACCUGAAGGAGCGACAUGAGGAUCACCCAUGUCUCCCGUUAUGGGAGUUCUUUAGGUCAGGUAGGUCGCAGGUAGGGCC [#1 Exclusion - Arginine B Attempt #4 (Inspired by Omei)] shows apparent KD of MS2 coat protein of 20 nM or higher.
Response: class 0

Query: Hi, just wondering whether AGCACUGUGACGGCCGCCACUACAUAAAUAGGGUGGUCAGGUUCAUUACAUGAGGAUCACCCAUGUAGGACCGGGUCUCAGUGCA [Omei Trp Exc B A v7] shows apparent KD of MS2 coat protein of 20 nM or higher.
Response: class 0
